Data provenance is patent US20260158064A1.

Property: koff; scope: individual binders
SYSTEM UNDER TEST: T1, human ROR1-His protein (fused with a His protein tag, Acrobiosystems, RO1-H522y) (human, UniProt Q01973 30-403)
T1 construct: also called recombinant human ROR1-His protein; not shown: His tag
T1 sequence (Q01973 30-403 limits assumed): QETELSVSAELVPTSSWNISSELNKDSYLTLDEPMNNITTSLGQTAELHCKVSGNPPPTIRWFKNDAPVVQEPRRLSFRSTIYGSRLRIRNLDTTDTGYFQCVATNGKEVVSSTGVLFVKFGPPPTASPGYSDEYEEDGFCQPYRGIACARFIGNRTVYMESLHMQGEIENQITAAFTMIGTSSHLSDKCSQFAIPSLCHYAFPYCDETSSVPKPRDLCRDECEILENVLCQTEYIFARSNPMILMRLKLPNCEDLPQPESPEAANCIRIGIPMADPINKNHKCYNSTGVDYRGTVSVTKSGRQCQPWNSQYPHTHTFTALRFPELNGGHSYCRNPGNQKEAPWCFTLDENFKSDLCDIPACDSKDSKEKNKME
RUN DESCRIPTION: SPR Biacore T200, antibody Fc-captured, antigen as analyte
Report the figure in s⁻¹ without appending any unit label.

A selection of reference data follows.
humanized single domain antibody AHP15773-VHH4 (Fc fusion, Humanized VHH expressed from pcDNA3.4-Fc (Human IgG1); not shown: human IgG1 Fc of the pcDNA3.4-Fc (Human IgG1) expression vector) EVQLVESGGGLVQPGGSLRLSCAASGSDFSDSAMGWYRQAPGKQREFVAAIGAGGITTYADSVKGRFTISRDNAKNTLYLQMNSLRAEDTAVYFCNFAPGWYPPGYQYWGQGTLVTVSS = 0.0587
single domain antibody AHP15485 (Fc fusion, Alpaca VHH expressed from pcDNA3.4-Fc (HuIgG1) in HEK293-6E; also called AHP15485-VHH; not shown: human IgG1 Fc of the pcDNA3.4-Fc (HuIgG1) expression vector) EVQLVESGGGLAQAGGSLSLSCTASGRSFSNFQMGWFRQAPGKEREFVAASGWSGGPTYYADSVKGRFTISTDDSKKTMYLQMNSLKPEDTAAYYCYEDRVLSGRPVRYWGRGTQVTVSS = 0.063
humanized single domain antibody AHP15485-VHH4 (Fc fusion, Humanized VHH expressed from pcDNA3.4-Fc (Human IgG1); not shown: human IgG1 Fc of the pcDNA3.4-Fc (Human IgG1) expression vector) EVQLVESGGGLVQPGGSLRLSCAASGRSFSNFQMGWFRQAPGKEREFVAASGWSGGPTYYADSVKGRFTISTDNSKNTLYLQMNSLRAEDTAVYYCYEDRVLSGRPVRYWGQGTLVTVSS = 0.0686

Okay, next one:
IN: Field request: koff | item: single domain antibody AHP15773 (Fc fusion, VHH expressed from pcDNA3.4-Fc (HuIgG1); also called AHP15773-VHH; not shown: human IgG1 Fc of the pcDNA3.4-Fc (HuIgG1) expression vector) EVQLVESGGGLVQPGGSLRLSCLASGSDFSDSAMGWYRQAPGKQREFVAAIGAGGITTYADSVKGRFTISRDSAKNIVYLQMSSLSPEDTAVYFCNFAPGWYPPGYQYWGQGTQVTVSS
OUT: 0.117
